Data origin: patent US20240018153A1

Catalogue of compounds with associated remaining activity at 10 µM
tested_target: JAK3 (Homo sapiens (Human))
Sequence (P52333 781-1124): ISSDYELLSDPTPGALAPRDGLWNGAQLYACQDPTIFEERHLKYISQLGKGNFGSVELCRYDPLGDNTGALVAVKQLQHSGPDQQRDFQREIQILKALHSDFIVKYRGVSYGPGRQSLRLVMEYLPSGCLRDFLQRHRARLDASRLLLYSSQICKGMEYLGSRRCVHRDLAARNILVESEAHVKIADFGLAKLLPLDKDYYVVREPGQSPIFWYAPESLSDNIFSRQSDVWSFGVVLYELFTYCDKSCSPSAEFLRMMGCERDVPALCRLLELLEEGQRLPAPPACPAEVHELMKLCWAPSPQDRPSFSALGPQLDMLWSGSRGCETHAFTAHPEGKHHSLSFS
assay: HTRF KinEASE-TK kinase assay, JAK3
Type: biochemical
stated_conditions: read-out: % JAK3 Remaining activity vs DMSO (10 μM, 3 h)
parameter: remaining activity at 10 µM

{"compound": "CN(CCn1nc(-c2ccc(Oc3ccccc3)cc2)c2c(N)ncnc21)C(=O)c1c(F)c(F)c(F)c(F)c1S(N)(=O)=O [Compound I-33]", "tested_target": "JAK3 (Homo sapiens (Human))", "reading": "50 to 90%"}
{"compound": "CS(=O)(=O)c1c(F)c(F)c(F)c(F)c1C(=O)N1CC(n2nc(-c3ccc(Oc4ccccc4)cc3)c3c(N)ncnc32)C1 [Compound I-27]", "tested_target": "JAK3 (Homo sapiens (Human))", "reading": "< 50%"}
{"compound": "COCCOc1ccc(Nc2ncc(F)c(NCCCNS(=O)(=O)c3c(F)c(F)c(F)c(F)c3C(F)F)n2)cc1 [Compound I-52]", "tested_target": "JAK3 (Homo sapiens (Human))", "reading": "< 50%"}
{"compound": "CN(CCn1nc(-c2ccc(Oc3ccccc3)cc2)c2c(N)ncnc21)C(=O)c1c(F)c(F)c(F)c(F)c1S(=O)(=O)N(C)C [Compound I-30]", "tested_target": "JAK3 (Homo sapiens (Human))", "reading": "50 to 90%"}
{"compound": "C[S+]([O-])c1c(F)c(F)c(F)c(F)c1C(=O)N1CCC[C@@H](n2nc(-c3ccc(Oc4ccccc4)cc3)c3c(N)ncnc32)C1 (some centres unmarked) [Compound I-36]", "tested_target": "JAK3 (Homo sapiens (Human))", "reading": "50 to 90%"}
